system: Mus musculus; experiment: Antihyperalgesic activity in albino Swiss CD1 IGS mouse model of streptozocin-induced type1 diabetic neuropathic pain assessed as increase in paw withdrawal latency at 0.005 nmol, it administered on day 10 after STZ injection measured at 180 mins post dose by […]; assay type: functional, organism-based
The source made the active and inactive calls. The calls are words filed in the database; no cut-off is given here. Numbered stars: 1 amine (or outer) side, 2 acyl side, 3 side chain; on linkers, the order of the positions; unused ones are H or OH. Square brackets hold non-standard residues; d marks the D form. Peptide text beside a SMILES is read from it. X1 = O=C1[C@@H](N[*:1])Cc2ccccc2CN1CCC(=O)[*:2]; Phe(4-F) = N[C@@H](Cc1ccc(F)cc1)C(=O)O; Dmt = Cc1cc(O)cc(C)c1C[C@H](N)C(=O)O
Please state which outcome applies, choosing from Y = active, N = inactive

Hey, what did the test say about Cc1cc(O)cc(C)c1C[C@H](N)C(=O)N[C@H](CCCNC(=N)N)C(=O)N[C@H]1Cc2ccccc2CN(CCC(=O)N[C@@H](CCCNC(=N)N)C(=O)N[C@@H](Cc2ccc(O)cc2)C(=O)N[C@@H](Cc2ccc(O)cc2)C(=O)N[C@@H](CCCNC(=N)N)C(=O)N[C@@H](Cc2c[nH]c3ccccc23)C(=O)N[C@@H](CCCNC(=N)N)C(N)=O)C1=O (H-[Dmt][dR][X1]RYYRWR-NH2) ?
N

Hey, what did the test say about CC[C@H](C)[C@H](NC(=O)[C@H](CCCNC(=N)N)NC(=O)[C@H](Cc1ccc(O)cc1)NC(=O)[C@H](Cc1ccc(O)cc1)NC(=O)[C@H](CCCNC(=N)N)NC(=O)CCN1Cc2ccccc2C[C@H](NC(=O)[C@@H](CCCNC(=N)N)NC(=O)[C@@H](N)Cc2c(C)cc(O)cc2C)C1=O)C(=O)N[C@@H](CCCCN)C(N)=O (H-[Dmt][dR][X1]RYYRIK-NH2) ?
Y

Hey, what did the test say about Cc1cc(O)cc(C)c1C[C@H](NC(=O)[C@H](Cc1ccc(O)cc1)NC(=O)[C@H](CCCNC(=N)N)NC(=O)CCN1Cc2ccccc2C[C@H](NC(=O)[C@@H](CCCNC(=N)N)NC(=O)[C@@H](N)Cc2c(C)cc(O)cc2C)C1=O)C(=O)N[C@@H](CCCNC(=N)N)C(=O)N[C@@H](Cc1c[nH]c2ccccc12)C(=O)N[C@@H](CCCNC(=N)N)C(N)=O (H-[Dmt][dR][X1]RY[Dmt]RWR-NH2) ?
N

Hey, what did the test say about Cc1cc(O)cc(C)c1C[C@H](N)C(=O)N[C@H](CCCNC(=N)N)C(=O)N[C@H]1Cc2ccccc2CN(CCC(=O)N[C@@H](CCCNC(=N)N)C(=O)N[C@@H](Cc2ccc(O)cc2)C(=O)N[C@@H](Cc2ccc(F)cc2)C(=O)N[C@@H](CCCNC(=N)N)C(=O)N[C@@H](Cc2c[nH]c3ccccc23)C(=O)N[C@@H](CCCNC(=N)N)C(N)=O)C1=O (H-[Dmt][dR][X1]RY[Phe(4-F)]RWR-NH2) ?
N
